molecular target: FPRL-1 (Homo sapiens); construct: expressed in transfected cells; experiment: compound-induced calcium activity on FLIPR Tetra in CHO-Ga16 cells stably expressing FPRL1; format: cell-based; conditions: efficacy value in brackets under EC50
Sequence (P25090 whole entry): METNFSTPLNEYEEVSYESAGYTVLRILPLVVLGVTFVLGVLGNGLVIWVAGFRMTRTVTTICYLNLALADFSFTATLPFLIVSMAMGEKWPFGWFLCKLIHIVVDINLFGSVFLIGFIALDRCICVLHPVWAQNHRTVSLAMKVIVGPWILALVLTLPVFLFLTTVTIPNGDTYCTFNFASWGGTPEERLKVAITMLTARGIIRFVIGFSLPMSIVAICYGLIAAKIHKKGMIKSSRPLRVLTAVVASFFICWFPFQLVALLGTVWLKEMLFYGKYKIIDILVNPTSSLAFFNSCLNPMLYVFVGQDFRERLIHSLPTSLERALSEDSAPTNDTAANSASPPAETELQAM

compound: CC1Cc2ccc(NC(=O)Nc3ccc(S(C)(=O)=O)cc3)cc2C(=O)N1CCCN (centres unmarked)
test.target: FPRL-1 (Homo sapiens)
FPRL-1 Ga16-CHO (eff): (88)

compound: CSc1ccc(NC(=O)Nc2ccc3c(c2)C(=O)N(CCCN)C(C)C3)cc1 (centres unmarked)
test.target: FPRL-1 (Homo sapiens)
FPRL-1 Ga16-CHO (eff): (0.89)

compound: CSc1ccc(NC(=O)Nc2ccc3c(c2)C(=O)N(CCc2c[nH]cn2)C(c2ccc(Cl)nc2)C3)cc1 (centres unmarked)
test.target: FPRL-1 (Homo sapiens)
FPRL-1 Ga16-CHO (eff): (0.89)
